- experimental_target: OCT3 (SLC22A3) (Homo sapiens, UniProt O75751)
- Sequence (O75751 whole entry): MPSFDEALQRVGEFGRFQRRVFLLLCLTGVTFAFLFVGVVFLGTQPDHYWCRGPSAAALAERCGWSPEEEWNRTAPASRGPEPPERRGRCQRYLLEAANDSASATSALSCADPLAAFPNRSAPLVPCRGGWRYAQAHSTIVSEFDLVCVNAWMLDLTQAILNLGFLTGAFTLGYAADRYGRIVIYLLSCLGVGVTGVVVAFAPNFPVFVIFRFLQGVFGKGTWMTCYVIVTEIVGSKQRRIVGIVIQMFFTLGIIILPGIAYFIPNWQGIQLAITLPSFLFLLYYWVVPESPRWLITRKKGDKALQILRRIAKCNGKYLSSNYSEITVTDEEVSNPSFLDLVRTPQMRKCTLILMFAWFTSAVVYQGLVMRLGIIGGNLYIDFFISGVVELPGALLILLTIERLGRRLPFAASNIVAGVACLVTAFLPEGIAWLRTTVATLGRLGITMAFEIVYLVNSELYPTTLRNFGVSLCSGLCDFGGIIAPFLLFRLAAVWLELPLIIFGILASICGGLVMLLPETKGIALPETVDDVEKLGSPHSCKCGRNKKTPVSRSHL
- test: Substrate activity at human OCT3 overexpressed in HEK293 cells assessed as uptake ratio incubated for 2 mins by LC-MS/MS analysis
- Type: ADME, cell-based
- test_conditions: HEK293 cells overexpressing OCT3
measured_metric: uptake ratio at 2 min
Field format: numeric only.

>>> print(df.to_string())
                                   molecule                       experimental_target        measured_metric  assay_value
0  CCC(NC(C)C)C(O)c1ccc(O)c(O)c1 (centres undefined)  OCT3 (SLC22A3) (Homo sapiens, UniProt O75751)  uptake ratio at 2 min         23.3

Just so you know, measured uptake ratio at 2 min for "[H]/N=C(/N)N/C(=N/[H])NCCc1ccccc1" came out at 32.2

Noted for "CN(C)CCc1c[nH]c2ccc(C[C@H]3COC(=O)N3)cc12" : its uptake ratio at 2 min reads 22

Record summary for C[N+]1(CC2CC2)CC[C@]23c4c5ccc(O)c4O[C@H]2C(=O)CC[C@@]3(O)[C@H]1C5 (some centres undefined) [METHYLNALTREXONE] : reported uptake ratio at 2 min = 102
